Experiment: NCI Yeast Anticancer Drug Screen. Data for the cln2 rad14 strain (AID 165);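 further: 0% = growth equal to vehicle treated cultures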
Conditions: S. cerevisiae cln2 rad14 strain, at 50.0 µM
This is part of a sample that, as a whole, favours compounds with a hit. Of some 79,000 tested, about 15% had one in any assay. Activity calls are given as the source filed them. No stated cut-off is given here; in the data, active means growth inhibition above about 70%; inactive means the rest.
Write down one outcome, taken from Y for active, N for inactive

COMPOUND: C[C@@]12C(=O)OC(=O)[C@]1(C)[C@H]1CC[C@@H]2O1
CAT: Y
//
COMPOUND: Cc1ccc(NS(=O)(=O)c2ccc(C)cc2)cc1
CAT: N
//
COMPOUND: CC(=O)c1cc(-c2ccccc2)nc2ccccc12
CAT: Y
//
COMPOUND: FC(F)(F)c1nc(S)cc(=S)[nH]1
CAT: N
//
COMPOUND: CCCCCCCN=C(N)c1ccc(C(=O)OCc2ccccc2)cc1
CAT: Y
//
COMPOUND: Cc1c2ccccc2c(CSC(=N)N)c2ccccc12
CAT: Y
//
COMPOUND: Nc1c(O)c(Cl)cc(Cl)c1Cl
CAT: Y
//
COMPOUND: CC(=O)Oc1c(Cl)cc(Cl)cc1C(c1cc(Cl)cc(Cl)c1OC(C)=O)C(Cl)(Cl)Cl
CAT: Y

Shifting focus to the compound that follows.
So what was the verdict on `CCOP(=O)(OCC)/C(=C\NC(=S)N=Nc1c(O)[nH]c2ccccc12)C(=O)OC` in this test?
N

---

Experiment: NCI Yeast Anticancer Drug Screen. Data for the sgs1 mgt1 strain (AID 161);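 further: 0% = growth of cultures given vehicle only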
Settings: S. cerevisiae sgs1 mgt1 strain, at 5.0 µM (retest, dose inferred, filed as 0.5), hits give high values
Compounds without any hit were thinned out: in the full panel of roughly 79,000, 15% have a hit. Active and inactive are the calls of the source. No stated cut-off is given here; in the data, active means growth inhibition above about 70%; inactive means the rest.
MEASURED QUANTITY: growth inhibition

Past entries and their recorded results:
COMPOUND: O=C1C(=O)N(C(=O)c2ccc(Cl)c(Cl)c2)c2ccc(Cl)cc21
growth inhibition: -7% (inactive)
--
COMPOUND: CCN(CC)CCCC(Nc1c2ccc(Cl)cc2nc2ccc(OC)cc12)c1cccs1 (stereo not given)
growth inhibition: 92% (active)
--
COMPOUND: O=C1NC2(C=Cc3c(ccc4ccccc34)O2)Oc2ccccc21 (stereo not given)
growth inhibition: 6% (inactive)
--
COMPOUND: FC(F)(F)c1[nH]nc(-c2cc3ccccc3o2)c1N=NN1CCOCC1
growth inhibition: 100% (active)

For record `O=C(O)c1c(Cl)c(Cl)c(Cl)c(Cl)c1-c1c2cc(I)c(=O)c(I)c-2oc2c(I)c(O)c(I)cc12` the listed growth inhibition is 82% (active)

---

Assay: NCI Yeast Anticancer Drug Screen. Data for the mec2-1 strain (AID 157)
Conditions: S. cerevisiae mec2-1 strain, at 50.0 µM, hits give high values
Compounds without any hit were thinned out: in the full panel of roughly 79,000, 15% have a hit.
MEASURED QUANTITY: growth inhibition (%)
Just the number please, in %, no unit attached.

COMPOUND: Cc1ccccc1[P+](C)(c1ccccc1C)c1ccccc1C
UNIT TEXT: %
OBSERVED MEASUREMENT: 69.7

COMPOUND: CCCN1C(=O)c2ccccc2C1=O
UNIT TEXT: %
OBSERVED MEASUREMENT: -6.65

COMPOUND: CC(=O)Oc1cc2c(cc1OC(C)=O)OCC(c1ccccc1)C2 (stereo unspecified)
UNIT TEXT: %
OBSERVED MEASUREMENT: 56.3

COMPOUND: CCN(CC)c1ccc(N=Nc2ccc(-c3nc4cccn(C)c-4n3)cc2)cc1
UNIT TEXT: %
OBSERVED MEASUREMENT: 79.2

COMPOUND: COc1ccc(C(=O)C(CCC(=O)/C=C/c2ccccc2)S(C)(=O)=O)cc1 (stereo unspecified)
UNIT TEXT: %
OBSERVED MEASUREMENT: 3.5

Record summary for `CCOc1cc(/C=N/NC(=S)NC23CC4CC(CC(C4)C2)C3)ccc1O` : reported growth inhibition = 40.5

// growth inhibition value for COc1cc(C2SC(N)=Nc3c2c(C)nn3C(=O)c2ccccc2O)cc(OC)c1OC (stereo unspecified) : 39.9

Short answer for `CCOC(=O)/C(=C/c1ccc2ccccc2c1)P(=O)(OCC)OCC` : growth inhibition was 69.2

// sample `Cc1ccccc1N1CCN(c2c3c(nc4ccccc24)CCCCC3)CC1` , its growth inhibition was 97

// `O=S(=O)(Nc1ccc2ccccc2c1)c1ccccc1` : growth inhibition value = 98

// `COc1ccc(C(C#N)=C2C=CC(=NOC(=O)Nc3ccccc3)C=C2)cc1` : growth inhibition value = 93.1

Data origin: PubChem BioAssay (NCI)
